- test target: furin, P09958;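 note: purified furin at 1:10 enzyme:substrate in 50 mM HEPES pH 7.5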
- Sequence (P09958 whole entry): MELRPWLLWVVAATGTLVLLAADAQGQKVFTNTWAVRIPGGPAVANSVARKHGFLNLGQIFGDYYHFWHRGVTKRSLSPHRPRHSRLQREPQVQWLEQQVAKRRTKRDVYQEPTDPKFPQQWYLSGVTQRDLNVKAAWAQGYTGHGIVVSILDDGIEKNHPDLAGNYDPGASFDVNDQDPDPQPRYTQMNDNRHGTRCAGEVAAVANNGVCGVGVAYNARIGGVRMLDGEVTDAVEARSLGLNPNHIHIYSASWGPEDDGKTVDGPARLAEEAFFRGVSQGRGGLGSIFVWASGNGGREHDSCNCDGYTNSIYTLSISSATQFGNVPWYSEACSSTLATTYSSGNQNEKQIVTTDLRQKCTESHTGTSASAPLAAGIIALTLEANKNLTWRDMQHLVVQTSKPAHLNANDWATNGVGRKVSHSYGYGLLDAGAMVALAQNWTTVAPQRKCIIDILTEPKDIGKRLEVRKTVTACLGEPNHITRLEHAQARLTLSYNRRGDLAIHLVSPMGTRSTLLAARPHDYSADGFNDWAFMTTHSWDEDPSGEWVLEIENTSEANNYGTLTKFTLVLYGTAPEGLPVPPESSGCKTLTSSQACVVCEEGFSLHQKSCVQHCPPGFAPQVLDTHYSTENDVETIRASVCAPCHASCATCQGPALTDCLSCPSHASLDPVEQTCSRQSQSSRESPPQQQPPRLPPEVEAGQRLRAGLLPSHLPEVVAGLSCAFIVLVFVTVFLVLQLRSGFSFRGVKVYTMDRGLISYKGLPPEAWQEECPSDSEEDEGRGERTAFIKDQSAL
- procedure summary: furin cleavage Z-score vs untreated control; higher = more cleavage, active = 3.5 or more, inactive = 1 or less, 8 variable residues between constant flanks
- condition description: 7.5 min
The other results are listed elsewhere or left out. The hit rate among all sequences tested is not known here.
assay readout: furin cleavage Z-score
Answers are plain numbers.

CARRKRKKEVAGNASASA [FS-2296]: 1.16
CARKARMLYQAGNASASA [FS-2685]: 1.39
CAAVCCSMSYAGNASASA [HC1983]: -0.929
CARKNRSKNQAGNASASA [FS-3223]: 0.698
CARRKRHSEHAGNASASA [FS-3166]: 10.5
CARSKRSKNQAGNASASA [FS-1973]: 5.82

Proceeding to the next sequence to report its furin cleavage Z-score.
Could you please provide reported furin cleavage Z-score for CARSSKDTSTAGNASASA [FS-2820] ? Thanks! -0.514

Taken from the supplement of paper PMC3545927.
